experiment: amyloid nucleation score (Sup35N fusion, yeast selection) (log enrichment); library NNK3; higher = more nucleation; inactive = no reads after selection;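 note: zero at mode of non-aggregating sequences after 7 days selection at 30°C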
PROPERTY NAME: amyloid nucleation score

A selection of reference data follows.
HDMVREVDPILFMTLFRGGF ... -0.517
IALVMSIDVAVVLMYPSPQW ... 0.381
GKINLVTCFVCLSTPFKHSL ... 1.74
LVLDCMIMGMIIDSWYWPLN ... inactive

Now for a further sequence.
Assign amyloid nucleation score to the following record: `WHWRGTICVLCAGYRWIAHS` inactive

----------
assay: amyloid nucleation score (Sup35N fusion, yeast selection) (log enrichment); library NNK3; higher = more nucleation; inactive = no reads after selection
PROPERTY NAME: amyloid nucleation score

SMSFFMSNGRALLYCQMQFA ... inactive
KCLGFHKHGALFTAYWGQTS ... inactive
NEDLIDVQVVHC ... inactive

----------
experiment: amyloid nucleation score (Sup35N fusion, yeast selection) (log enrichment); library NNK1; higher = more nucleation; inactive = no reads after selection
Answer condition not met if amyloid nucleation score is under 0.2, and condition met if it is 0.2 or more.

API: above_or_equal(metric=amyloid nucleation score, cutoff=0.2) for item `VKVHEDSIRMEENSSDTYFK` condition not met

API: above_or_equal(metric=amyloid nucleation score, cutoff=0.2) for item `RIFLLVTHVACAMPLFHKTR` condition met

API: above_or_equal(metric=amyloid nucleation score, cutoff=0.2) for item `KVLGWNMGVHFNHGGRSFVM` condition met

API: above_or_equal(metric=amyloid nucleation score, cutoff=0.2) for item `MARPLRIHYNYSGSNDLRVR` condition not met

API: above_or_equal(metric=amyloid nucleation score, cutoff=0.2) for item `PQRQFDLIVD` condition met

API: above_or_equal(metric=amyloid nucleation score, cutoff=0.2) for item `RISTCIEILYDS` condition not met

API: above_or_equal(metric=amyloid nucleation score, cutoff=0.2) for item `AKMIDR` condition met

API: above_or_equal(metric=amyloid nucleation score, cutoff=0.2) for item `YWDEIRCNSKNFDPCPFKAS` condition met

API: above_or_equal(metric=amyloid nucleation score, cutoff=0.2) for item `FTLHYCLMDAFWGSSMDRGV` condition met

API: above_or_equal(metric=amyloid nucleation score, cutoff=0.2) for item `FPDLYVWRCWKSQGHSWHGV` condition met

API: above_or_equal(metric=amyloid nucleation score, cutoff=0.2) for item `EERDFKEPSRLVIIKLTVMF` condition met

API: above_or_equal(metric=amyloid nucleation score, cutoff=0.2) for item `GTLVLYFCGVC` condition met

API: above_or_equal(metric=amyloid nucleation score, cutoff=0.2) for item `LDSTLSLQ` condition not met

API: above_or_equal(metric=amyloid nucleation score, cutoff=0.2) for item `LWRLANWRM` condition not met

API: above_or_equal(metric=amyloid nucleation score, cutoff=0.2) for item `WRCRGCMWAHRAWGNSSCV` condition not met

API: above_or_equal(metric=amyloid nucleation score, cutoff=0.2) for item `TLSIFVLRIGARYNMLSLIQ` condition not met

API: above_or_equal(metric=amyloid nucleation score, cutoff=0.2) for item `AGWYINYTGKRDDARLLY` condition not met

API: above_or_equal(metric=amyloid nucleation score, cutoff=0.2) for item `VGCADEMVPMEFMCWLGIIF` condition not met

API: above_or_equal(metric=amyloid nucleation score, cutoff=0.2) for item `KKRICFMSLSQRWRSRTTCW` condition not met

API: above_or_equal(metric=amyloid nucleation score, cutoff=0.2) for item `ESSNSLL` condition not met

API: above_or_equal(metric=amyloid nucleation score, cutoff=0.2) for item `FIIITYFGLGKTVYARRKCC` condition not met

API: above_or_equal(metric=amyloid nucleation score, cutoff=0.2) for item `CNSRNITT` condition not met

API: above_or_equal(metric=amyloid nucleation score, cutoff=0.2) for item `LVSCDIVWWTAMFGLLARMF` condition met

API: above_or_equal(metric=amyloid nucleation score, cutoff=0.2) for item `GNAWCGLGSKKYCVWLYHYS` condition met

API: above_or_equal(metric=amyloid nucleation score, cutoff=0.2) for item `YPRPLWANRRPC` condition not met

API: above_or_equal(metric=amyloid nucleation score, cutoff=0.2) for item `FCDILQVLVCYGLLKRVLKV` condition not met

API: above_or_equal(metric=amyloid nucleation score, cutoff=0.2) for item `SVSRYDFEVGVMGHKCCITT` condition not met

API: above_or_equal(metric=amyloid nucleation score, cutoff=0.2) for item `SLKFEYCFSPSNVAAVDWGT` condition not met

API: above_or_equal(metric=amyloid nucleation score, cutoff=0.2) for item `KVEWVSDTRVNLLGTFVLKA` condition met

API: above_or_equal(metric=amyloid nucleation score, cutoff=0.2) for item `VYQKWLG` condition not met

API: above_or_equal(metric=amyloid nucleation score, cutoff=0.2) for item `GPWGQICSDTFYLLFVWVSW` condition not met

API: above_or_equal(metric=amyloid nucleation score, cutoff=0.2) for item `SYRSEGAMETLIDGRLSDLS` condition met

API: above_or_equal(metric=amyloid nucleation score, cutoff=0.2) for item `DPICFYYYFLVN` condition not met

API: above_or_equal(metric=amyloid nucleation score, cutoff=0.2) for item `DDCESFEMRAFM` condition met

----------
assay: amyloid nucleation score (Sup35N fusion, yeast selection) (log enrichment); library NNK1; higher = more nucleation; inactive = no reads after selection
PROPERTY NAME: amyloid nucleation score

PMMMKIVKHDIVFSLEFHLI ... inactive
NMFAWV ... inactive
MRRHLGHLTLESGNHGCLQA ... inactive
GNGFVL ... 0.999

----------
test: amyloid nucleation score (Sup35N fusion, yeast selection) (log enrichment); library NNK3; higher = more nucleation; inactive = no reads after selection
PROPERTY NAME: amyloid nucleation score

A selection of reference data follows.
GLLRTLSQDMTCGRDAGQGN ... inactive
FVSSYNIENV ... inactive
RVNRRWDSLS ... inactive
LSLLSFNGIGHFLIVRKRYK ... inactive
WRRMTEPMSAKGLTNYLEST ... inactive
SQCYCVYAGVVT ... 0.034
WMVGVKRSW ... inactive
DTRGTARKPKSLSTRLEIRV ... inactive
CSLTKAVFQRQPLRRSKGTK ... inactive
IEVYYSNRSWCLRQIRGCTG ... inactive

Assign amyloid nucleation score to the following record: `FMIYYLGLFRR` inactive

Assign amyloid nucleation score to the following record: `IVFWRSFHKNA` inactive

----------
assay: amyloid nucleation score (Sup35N fusion, yeast selection) (log enrichment); library NNK1; higher = more nucleation; inactive = no reads after selection
PROPERTY NAME: amyloid nucleation score

A selection of reference data follows.
FLFLPVSVSYYEDDSGHVLC ... inactive
RLTFVYHRMERVKKDYCS ... inactive
LVLIAA ... inactive
MTRVNLKDKHNVRILSFN ... inactive
SYFVIFSGTM ... inactive

Assign amyloid nucleation score to the following record: `SNFSYMSCLLGYLPLILFAA` 0.014

Assign amyloid nucleation score to the following record: `LVQVIVHFGIYIISAKGQGT` 3.1

Assign amyloid nucleation score to the following record: `IELVNYFHYFRWVGLLDRRC` -0.077

----------
assay: amyloid nucleation score (Sup35N fusion, yeast selection) (log enrichment); library NNK2; higher = more nucleation; inactive = no reads after selection
PROPERTY NAME: amyloid nucleation score

A selection of reference data follows.
RKFFSIVRFCA ... inactive
TDRLRFIYSGGVEFFVPVLL ... inactive
GCKVIYIYIIHIFKCIITNW ... inactive
YIPKLLRCGRGCHYILSYAD ... 0.065
YCLSSNVGVFKCFNGNVVYS ... 3.54
PSLAKRGVSVCLAKANSRTI ... -0.388
KNINWILNAGSMLVSFYRPW ... 7.33
CGYVEV ... 0.244
GHKDSEDGLNTKFFRRSN ... inactive
NILIRASGVRA ... inactive

Assign amyloid nucleation score to the following record: `LGPLVMVFCVRIPYTTMVAW` -1.25

Assign amyloid nucleation score to the following record: `VGYSEMGVADLGHGGW` 1.15

Assign amyloid nucleation score to the following record: `IYWSLMDWLEV` 1.22

Assign amyloid nucleation score to the following record: `CFCQTCSLSRAKSMEEGCLR` -1.08

----------
assay: amyloid nucleation score (Sup35N fusion, yeast selection) (log enrichment); library NNK2; higher = more nucleation; inactive = no reads after selection
Answer NOT MET if amyloid nucleation score is under 0.3, and MET if it is 0.3 or more.

API: above_or_equal(metric=amyloid nucleation score, cutoff=0.3) for item `VNVNMPWTEERSKSEMSNTW` MET

API: above_or_equal(metric=amyloid nucleation score, cutoff=0.3) for item `TWVVRVGFMLAYLKQR` MET

API: above_or_equal(metric=amyloid nucleation score, cutoff=0.3) for item `EFSSTTSALGKDVRVFNFAI` NOT MET

API: above_or_equal(metric=amyloid nucleation score, cutoff=0.3) for item `SARRRINGNPCEEMNQRLAV` MET

API: above_or_equal(metric=amyloid nucleation score, cutoff=0.3) for item `TRSRKWHRGS` MET

API: above_or_equal(metric=amyloid nucleation score, cutoff=0.3) for item `CYYVDIVVSHQRTTSVMVGD` MET

API: above_or_equal(metric=amyloid nucleation score, cutoff=0.3) for item `PCSLLKNWYIEAYTALQNIG` MET

API: above_or_equal(metric=amyloid nucleation score, cutoff=0.3) for item `FYYSLTMRLD` NOT MET

API: above_or_equal(metric=amyloid nucleation score, cutoff=0.3) for item `CSNSFLI` NOT MET

API: above_or_equal(metric=amyloid nucleation score, cutoff=0.3) for item `LRWAYMNTARQACMKAENG` NOT MET

API: above_or_equal(metric=amyloid nucleation score, cutoff=0.3) for item `VSELGSGSFIFCTFLADFHM` MET

API: above_or_equal(metric=amyloid nucleation score, cutoff=0.3) for item `DSSLKLGNTETFIDRSMLCN` NOT MET

API: above_or_equal(metric=amyloid nucleation score, cutoff=0.3) for item `CFSHYHDSFLPGWYYSGNYV` NOT MET

API: above_or_equal(metric=amyloid nucleation score, cutoff=0.3) for item `HAKPDNLLFLTNGEPRTIIR` NOT MET

API: above_or_equal(metric=amyloid nucleation score, cutoff=0.3) for item `TAALRVILGCMYNIWQMWHR` MET

API: above_or_equal(metric=amyloid nucleation score, cutoff=0.3) for item `LSNLEAEAWMRAYCIRVKIT` MET

API: above_or_equal(metric=amyloid nucleation score, cutoff=0.3) for item `RHLHYRRYKIAAKGLIVFMN` MET

API: above_or_equal(metric=amyloid nucleation score, cutoff=0.3) for item `RVSTEVFCSLLVGTHLGRGP` MET

API: above_or_equal(metric=amyloid nucleation score, cutoff=0.3) for item `FCLVEVWRIYVVCWPWSVGR` MET

API: above_or_equal(metric=amyloid nucleation score, cutoff=0.3) for item `WHCNFMHWVHKR` MET

API: above_or_equal(metric=amyloid nucleation score, cutoff=0.3) for item `SCMCMEICINWNFRCIDGRG` MET

API: above_or_equal(metric=amyloid nucleation score, cutoff=0.3) for item `GKITVRDISYVRIWRDSLLY` MET
